Below: a set of entries, each annotated with reported viability, T/C.
Tested on: 324938-238-R-J1-PDC complex spheroid growth, % test/control;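 also: spheroids exposed to agents for seven days before viability read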
Experiment: Anticancer human tumor 324938-238-R-J1-PDC patient-derived bladder carcinoma cell line growth inhibition [AhR]
Conditions: second compound 10 µM; first compound 1 µM; hits give low values
Description: Multicellular complex tumor spheroid response to aryl hydrocarbon receptor antagonists in combination with a variety of drugs and investigational agents in selected tumor cell lines […] Compounds. […] If the clinical Cmax for an agent had not been determined, the highest concentration tested was 10 microM (Table 1). […]
The figure you give is taken to be in %; do not add the unit.

# annotated cases, reported viability, T/C shown
>>> endpoint_value("NS(=O)(=O)OCC1CC(n2ccc3c(NC4CCc5ccccc54)ncnc32)CC1O (configuration not stated) + CC(CO)NC(=O)c1cc(-c2ccc(Cl)cc2)nn(-c2cnn(C)c2)c1=O")
40.8
>>> endpoint_value("CC1COCCN1c1cc(C2(S(C)(=N)=O)CC2)nc(-c2ccnc3[nH]ccc23)n1 (configuration not stated) + Cc1ccccc1N=Nc1ccc(NC(=O)c2ccnn2C)c(C)c1")
66
>>> endpoint_value("Nc1ccccc1NC(=O)c1ccc(CNC(=O)OCc2cccnc2)cc1 + CC(CO)NC(=O)c1cc(-c2ccc(Cl)cc2)nn(-c2cnn(C)c2)c1=O")
63.9

Q: Tell me reported viability, T/C for COc1ccc([C@@H](O)c2cc(-c3ncnc4cc(N5CCOCC5)ccc34)c(F)cc2Cl)nn1 + Cc1cncc(-c2nc(NCCc3c[nH]c4ccccc34)c3ncn(C(C)C)c3n2)c1 , tested with 324938-238-R-J1-PDC complex spheroid growth, % test/control.
Result: 2.73

Q: What viability, T/C appears in the records for this compound with 324938-238-R-J1-PDC complex spheroid growth, % test/control? COc1cc(Nc2ncc3c(n2)-c2ccc(Cl)cc2C(c2c(F)cccc2OC)=NC3)ccc1C(=O)O + Cc1cncc(-c2nc(NCCc3c[nH]c4ccccc34)c3ncn(C(C)C)c3n2)c1
Result: 15

Q: I'm curious: which viability, T/C was measured for COc1cccc2c1C(=O)c1c(O)c3c(c(O)c1C2=O)CC(O)(C(=O)CO)CC3OC1CC(N)C(O)C(C)O1 (configuration not stated) + Cc1cncc(-c2nc(NCCc3c[nH]c4ccccc34)c3ncn(C(C)C)c3n2)c1 tested on 324938-238-R-J1-PDC complex spheroid growth, % test/control?;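 also: spheroids exposed to agents for seven days before viability read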
Result: 0.29

Q: Notebook entry, 324938-238-R-J1-PDC complex spheroid growth, % test/control assay: viability, T/C of COc1cc(C2c3cc4c(cc3C(OC3OC5COC(C)OC5C(O)C3O)C3COC(=O)C23)OCO4)cc(OC)c1O (configuration not stated) + Cc1ccccc1N=Nc1ccc(NC(=O)c2ccnn2C)c(C)c1 = ?
Result: 38.7

Q: # value lookup — system 324938-238-R-J1-PDC complex spheroid growth, % test/control, readout viability, T/C, item O=C(C=Cc1cccc(S(=O)(=O)Nc2ccccc2)c1)NO + Cc1ccccc1N=Nc1ccc(NC(=O)c2ccnn2C)c(C)c1;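 also: spheroids exposed to agents for seven days before viability read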
Result: 62.1

Q: # returns recorded viability, T/C (system: 324938-238-R-J1-PDC complex spheroid growth, % test/control) for Nc1ncn(C2CC(O)C(CO)O2)c(=O)n1 (configuration not stated) + Cc1ccccc1N=Nc1ccc(NC(=O)c2ccnn2C)c(C)c1;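 also: spheroids exposed to agents for seven days before viability read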
Result: 60.7
